Tested on: HEK293T-Rex ERSE-FLuc
Assay: maximal ERSE-FLuc activation from dose-response fit, relative to thapsigargin (% of thapsigargin); higher = stronger activation
Conditions: 18 h
Answer Condition not met if maximal ERSE-FLuc activation is under 50, and Condition met if it is 50 or more.

Problem: Does the compound `COC(=O)c1ccc2c(COC(C)=O)c(OC(C)=O)ccc2c1COC(C)=O` have recorded maximal ERSE-FLuc activation that is 50 or more?
Solution: Condition met

Problem: Does the compound `CC(=O)Oc1cc(N2CCOCC2)c(OC(C)=O)c2c1C(=O)c1ccccc1C2=O` have recorded maximal ERSE-FLuc activation that is 50 or more?
Solution: Condition not met

Problem: Does the compound CC(C)CC(c1nnnn1C1CCCC1)N1CCN(C(=O)c2ccco2)CC1 (centres undefined) have recorded maximal ERSE-FLuc activation that is 50 or more?
Solution: Condition not met

Problem: Does the compound `O=C1N/C(=C/c2ccc(O)cc2)C(=O)N1c1cccc(Cl)c1` have recorded maximal ERSE-FLuc activation that is 50 or more?
Solution: Condition met

Problem: Does the compound `O=C(Nc1ccccc1O)c1cc2ccccc2o1` have recorded maximal ERSE-FLuc activation that is 50 or more?
Solution: Condition not met

Problem: Does the compound `Cc1cc(C)nc(/N=C(\N)Nc2ccc(OCCC(C)C)cc2)n1` have recorded maximal ERSE-FLuc activation that is 50 or more?
Solution: Condition not met

Problem: Does the compound `COc1ccccc1OCC(=O)Nc1cc(C)ccc1O` have recorded maximal ERSE-FLuc activation that is 50 or more?
Solution: Condition not met

Problem: Does the compound `CCCCCOc1ccc(N/C(N)=N/c2nc(C)cc(C)n2)cc1` have recorded maximal ERSE-FLuc activation that is 50 or more?
Solution: Condition met

Problem: Does the compound `COc1c(O)cc2oc(-c3ccc(O)c(O)c3)cc(=O)c2c1O` have recorded maximal ERSE-FLuc activation that is 50 or more?
Solution: Condition met

Problem: Does the compound `Fc1ccc(-c2nnc3ccc(N4CCN(c5ccccn5)CC4)nn23)cc1` have recorded maximal ERSE-FLuc activation that is 50 or more?
Solution: Condition not met

Problem: Does the compound `Nc1c(C(=O)Nc2ccccc2)sc2nc3c(cc12)CCCCC3` have recorded maximal ERSE-FLuc activation that is 50 or more?
Solution: Condition not met

Problem: Does the compound `O=C(Nc1ccc2nc(NC(=O)C3CCCCC3)sc2c1)C1CCCCC1` have recorded maximal ERSE-FLuc activation that is 50 or more?
Solution: Condition not met

Problem: Does the compound `O=[N+]([O-])c1ccc(/C=C/c2ccc(O)cc2)cc1` have recorded maximal ERSE-FLuc activation that is 50 or more?
Solution: Condition not met

Problem: Does the compound `O=c1[nH]c(COc2ccccc2)nc2sc3c(c12)CCCC3` have recorded maximal ERSE-FLuc activation that is 50 or more?
Solution: Condition not met

Problem: Does the compound `CCOC(=O)c1sc(NC(=O)c2cccc3ccccc23)nc1C` have recorded maximal ERSE-FLuc activation that is 50 or more?
Solution: Condition not met

Problem: Does the compound `CC(=O)c1cccc(Nc2nc(-c3ccc(O)c(O)c3)cs2)c1` have recorded maximal ERSE-FLuc activation that is 50 or more?
Solution: Condition met

Problem: Does the compound CN(C)/C=N/C1=C(C#N)C(c2ccc3c(c2)OCO3)c2ccc3ccccc3c2O1 (centres undefined) have recorded maximal ERSE-FLuc activation that is 50 or more?
Solution: Condition not met

Problem: Does the compound `O=c1[nH]c(/C=C2\C=Nc3ccccc32)c(O)n1-c1cccc(Cl)c1` have recorded maximal ERSE-FLuc activation that is 50 or more?
Solution: Condition met

Problem: Does the compound `O=[N+]([O-])c1ccc2nc(/C=C/c3ccccc3)[nH]c2c1` have recorded maximal ERSE-FLuc activation that is 50 or more?
Solution: Condition not met

Problem: Does the compound `O=C(NC1CCCC1)c1cc(-c2cccs2)on1` have recorded maximal ERSE-FLuc activation that is 50 or more?
Solution: Condition met

Problem: Does the compound `Nc1ccc2nc(/C=C/c3ccco3)[nH]c2c1` have recorded maximal ERSE-FLuc activation that is 50 or more?
Solution: Condition not met

Problem: Does the compound `Oc1cccc(Nc2nc(-c3ccc(O)c(O)c3)cs2)c1` have recorded maximal ERSE-FLuc activation that is 50 or more?
Solution: Condition met

Problem: Does the compound `N#C/C(=C/c1ccc(O)c(O)c1)c1nc2ccccc2s1` have recorded maximal ERSE-FLuc activation that is 50 or more?
Solution: Condition not met

Problem: Does the compound `O=C(CCCCCCC(=O)Nc1ccccc1)NO` have recorded maximal ERSE-FLuc activation that is 50 or more?
Solution: Condition met
